Listed here: items and their measured IC50.
target: Voltage-dependent T-type calcium channel subunit alpha-1H (Homo sapiens); experiment: Inhibition of recombinant Cav3.2 channel (unknown origin) expressed in HEK293 cells assessed as effect on calcium flux incubated for 3 mins by FLIPR assay
Sequence (O95180 whole entry): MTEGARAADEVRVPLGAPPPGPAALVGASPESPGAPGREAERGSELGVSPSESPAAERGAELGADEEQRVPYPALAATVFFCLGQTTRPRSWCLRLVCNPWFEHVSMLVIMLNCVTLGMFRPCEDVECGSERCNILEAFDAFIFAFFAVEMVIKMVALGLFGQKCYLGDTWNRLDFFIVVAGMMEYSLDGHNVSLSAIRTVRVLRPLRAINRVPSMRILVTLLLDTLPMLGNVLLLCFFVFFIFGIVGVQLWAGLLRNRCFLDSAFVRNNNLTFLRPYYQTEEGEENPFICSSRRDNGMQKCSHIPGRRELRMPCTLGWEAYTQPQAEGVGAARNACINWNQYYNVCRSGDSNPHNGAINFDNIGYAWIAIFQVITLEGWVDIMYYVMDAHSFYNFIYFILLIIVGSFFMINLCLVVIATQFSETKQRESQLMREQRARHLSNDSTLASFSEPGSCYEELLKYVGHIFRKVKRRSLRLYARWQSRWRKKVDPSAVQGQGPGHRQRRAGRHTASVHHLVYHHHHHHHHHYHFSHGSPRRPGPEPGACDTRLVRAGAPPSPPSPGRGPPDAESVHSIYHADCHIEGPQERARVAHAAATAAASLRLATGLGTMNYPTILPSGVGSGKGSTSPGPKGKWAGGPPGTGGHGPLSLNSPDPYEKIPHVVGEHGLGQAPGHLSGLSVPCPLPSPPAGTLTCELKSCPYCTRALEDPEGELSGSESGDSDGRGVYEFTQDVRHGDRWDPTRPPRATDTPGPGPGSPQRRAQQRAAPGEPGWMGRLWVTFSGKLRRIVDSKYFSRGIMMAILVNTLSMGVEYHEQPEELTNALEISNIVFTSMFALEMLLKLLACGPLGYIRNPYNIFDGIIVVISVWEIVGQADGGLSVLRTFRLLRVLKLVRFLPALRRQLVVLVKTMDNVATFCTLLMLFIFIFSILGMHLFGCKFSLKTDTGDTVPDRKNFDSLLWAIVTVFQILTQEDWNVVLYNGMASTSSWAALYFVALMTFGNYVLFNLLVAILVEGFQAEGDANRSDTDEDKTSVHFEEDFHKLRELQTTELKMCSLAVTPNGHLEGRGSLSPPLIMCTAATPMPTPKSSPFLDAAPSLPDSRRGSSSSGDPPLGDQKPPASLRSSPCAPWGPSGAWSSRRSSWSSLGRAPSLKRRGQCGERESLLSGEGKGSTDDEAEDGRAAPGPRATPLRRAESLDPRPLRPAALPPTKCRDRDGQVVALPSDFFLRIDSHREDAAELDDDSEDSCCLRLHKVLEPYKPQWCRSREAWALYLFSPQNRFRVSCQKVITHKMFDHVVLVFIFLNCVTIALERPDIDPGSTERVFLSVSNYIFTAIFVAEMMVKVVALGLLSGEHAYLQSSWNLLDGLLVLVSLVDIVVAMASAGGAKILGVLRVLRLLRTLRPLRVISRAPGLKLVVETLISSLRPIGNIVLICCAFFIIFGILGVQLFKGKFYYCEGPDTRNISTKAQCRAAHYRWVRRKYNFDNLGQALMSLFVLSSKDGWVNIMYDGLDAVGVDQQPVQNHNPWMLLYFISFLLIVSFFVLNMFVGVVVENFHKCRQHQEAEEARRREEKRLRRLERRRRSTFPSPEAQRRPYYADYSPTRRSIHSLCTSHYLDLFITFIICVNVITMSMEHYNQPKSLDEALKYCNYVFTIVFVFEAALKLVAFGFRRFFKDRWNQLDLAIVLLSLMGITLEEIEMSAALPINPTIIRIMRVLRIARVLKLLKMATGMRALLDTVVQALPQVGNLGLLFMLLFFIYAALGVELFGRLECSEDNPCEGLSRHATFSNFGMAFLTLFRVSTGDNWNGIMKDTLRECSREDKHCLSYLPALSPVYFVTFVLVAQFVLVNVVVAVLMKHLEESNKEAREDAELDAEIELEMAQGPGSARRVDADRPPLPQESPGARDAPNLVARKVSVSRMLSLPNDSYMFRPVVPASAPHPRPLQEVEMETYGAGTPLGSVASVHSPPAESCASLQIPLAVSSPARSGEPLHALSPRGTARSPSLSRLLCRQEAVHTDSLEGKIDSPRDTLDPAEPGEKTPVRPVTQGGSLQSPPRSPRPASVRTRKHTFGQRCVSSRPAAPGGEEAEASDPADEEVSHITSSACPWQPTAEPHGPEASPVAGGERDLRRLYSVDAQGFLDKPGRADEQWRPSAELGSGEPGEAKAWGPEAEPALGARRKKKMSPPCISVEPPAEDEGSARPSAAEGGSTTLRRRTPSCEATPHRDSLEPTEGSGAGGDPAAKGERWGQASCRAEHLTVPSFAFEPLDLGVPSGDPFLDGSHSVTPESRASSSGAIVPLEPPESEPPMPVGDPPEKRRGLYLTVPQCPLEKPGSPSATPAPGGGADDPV
Report the figure in µM without appending any unit label.

- MOLECULE: "CC(C)C(=O)O[C@]1(CCN(C)CCCc2nc3ccccc3[nH]2)C[C@@H]2CC[C@H]1c1ccccc12 (racemic)"
  MEASURED NUMBER: 0.432

Query :: Please tell me: IC50 of "CO[C@H]1C[C@@](CCN(C)CCCc2nc3ccccc3[nH]2)(OC(=O)C(C)C)[C@@H](C(C)C)c2ccc(F)cc21" , system Voltage-dependent T-type calcium channel subunit alpha-1H (Homo sapiens)?
Result :: 0.318

Query :: Please tell me: IC50 of CC(C)C(=O)O[C@]1(CCN(C)CCCc2nc3ccccc3[nH]2)C[C@@H]2CCC[C@H]1c1ccccc12 (racemic) , system Voltage-dependent T-type calcium channel subunit alpha-1H (Homo sapiens)?
Result :: 0.217

Query :: Please tell me: IC50 of "CC(C)C(=O)O[C@]1(CCN(C)CCCc2nc3ccccc3[nH]2)C[C@H](O)c2cc(F)ccc2[C@@H]1C(C)C" , system Voltage-dependent T-type calcium channel subunit alpha-1H (Homo sapiens)?
Result :: 0.076

Query :: Please tell me: IC50 of "CC(C)C(=O)O[C@@]1(CCN(C)CCCc2nc3ccccc3[nH]2)C[C@H]2CCC[C@@H]1c1ccccc12" , system Voltage-dependent T-type calcium channel subunit alpha-1H (Homo sapiens)?
Result :: 0.184

Query :: Please tell me: IC50 of "CC(C)C(=O)O[C@]1(CCN(C)CCCc2nc3ccccc3[nH]2)C[C@@H](OCc2ccccc2)c2cc(F)ccc2[C@@H]1C(C)C" , system Voltage-dependent T-type calcium channel subunit alpha-1H (Homo sapiens)?
Result :: 0.132

Query :: Please tell me: IC50 of COCC(=O)O[C@]1(CCN(C)CCCc2nc3ccccc3[nH]2)C[C@@H]2CC[C@H]1c1ccccc12 (racemic) , system Voltage-dependent T-type calcium channel subunit alpha-1H (Homo sapiens)?
Result :: 0.361

###

test: Protein binding in rat plasma; assay type: ADME, cell-free; conditions: read-out: PPB (converted)
MEASUREMENT KIND: fraction unbound
Simply state the number, no unit and no words.

Query :: Recorded fraction unbound for "COc1cccc2nc(CCCN(C)CC[C@]3(OC(=O)C(C)C)C[C@H]4CCC[C@@H]3c3ccccc34)[nH]c12" , please?
Result :: 0.002

###

assay: Clearance in Wistar rat at 10 mg/kg, po or 1 mg/kg, iv; assay type: ADME, organism-based; conditions: in vivo
MEASUREMENT KIND: clearance (mL/min/kg)
Report the figure in mL/min/kg without appending any unit label.

Query :: Recorded clearance for "COc1cccc2nc(CCCN(C)CC[C@]3(OC(=O)C(C)C)C[C@H]4CCC[C@@H]3c3ccccc34)[nH]c12" , please?
Result :: 58

###

Listed here: items and their measured EC50.
test system: Heart; experiment: Increase in coronary flow in Wistar rat Langendorff isolated perfused heart; format: functional, tissue-based; conditions: Rattus norvegicus, Wistar, Heart
Report the figure in µM without appending any unit label.

Solved entries (count: 2):
- MOLECULE: "COCC(=O)O[C@]1(CCN(C)CCCc2nc3ccccc3[nH]2)C[C@@H]2CC[C@H]1c1ccccc12 (racemic)"
  TARGET OR TEST SYSTEM: "Heart"
  EC50 (µM): 0.25
- MOLECULE: "CC(C)C(=O)O[C@]1(CCN(C)CCCc2nc3ccccc3[nH]2)C[C@H](OCc2ccccc2)c2cc(F)ccc2[C@@H]1C(C)C"
  TARGET OR TEST SYSTEM: "Heart"
  EC50 (µM): 0.016

Read the next record carefully.
Query :: Recorded EC50 for "CCCC[C@@H]1C[C@@](CCN(C)CCCc2nc3ccccc3[nH]2)(OC(=O)COC)[C@@H](C(C)C)c2ccc(F)cc21" , please?
Result :: 0.023

###

target: Cytochrome P450 3A4 (Homo sapiens, UniProt P08684); assay: Inhibition of CYP3A4 in human liver microsomes assessed as reduction in midazolam 1'-hydroxylation by LC-MS/MS method; format: ADME
Sequence (P08684 whole entry): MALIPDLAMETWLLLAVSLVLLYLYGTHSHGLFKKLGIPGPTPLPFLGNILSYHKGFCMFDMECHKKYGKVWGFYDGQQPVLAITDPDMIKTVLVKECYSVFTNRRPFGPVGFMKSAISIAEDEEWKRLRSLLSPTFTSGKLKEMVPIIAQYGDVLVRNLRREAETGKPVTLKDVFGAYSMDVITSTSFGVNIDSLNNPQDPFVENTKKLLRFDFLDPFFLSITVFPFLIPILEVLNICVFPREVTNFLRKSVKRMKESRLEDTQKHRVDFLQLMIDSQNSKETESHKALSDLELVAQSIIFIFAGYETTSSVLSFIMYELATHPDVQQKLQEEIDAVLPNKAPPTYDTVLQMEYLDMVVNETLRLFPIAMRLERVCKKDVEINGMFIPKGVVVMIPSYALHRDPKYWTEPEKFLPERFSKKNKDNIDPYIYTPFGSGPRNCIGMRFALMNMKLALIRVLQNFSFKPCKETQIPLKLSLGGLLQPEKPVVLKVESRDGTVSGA
MEASUREMENT KIND: pIC50
The quantity pIC50 is defined as the negative base-10 logarithm of the molar concentration.

Query :: Recorded pIC50 for "COc1cccc2nc(CCCN(C)CC[C@]3(OC(=O)C(C)C)C[C@H]4CCC[C@@H]3c3ccccc34)[nH]c12" , please?
Result :: 5.52

###

Listed here: items and their measured pEC50.
system: Heart; test: Increase in coronary flow in Wistar rat Langendorff isolated perfused heart; format: functional, tissue-based; details: Rattus norvegicus, Wistar, Heart
The quantity pEC50 is defined as the negative base-10 logarithm of the molar concentration.

Query :: Recorded pEC50 for "COc1cccc2nc(CCCN(C)CC[C@]3(OC(=O)C(C)C)C[C@H]4CCC[C@@H]3c3ccccc34)[nH]c12" , please?
Result :: 8.15

Query :: Recorded pEC50 for "CC(C)C(=O)O[C@@]1(CCN(C)CCCc2nc3ccccc3[nH]2)C[C@H]2CCC[C@@H]1c1ccccc12" , please?
Result :: 7.66

Query :: Recorded pEC50 for "CC(C)C(=O)O[C@]1(CCN(C)CCCc2nc3ccccc3[nH]2)CCc2cc(F)ccc2[C@@H]1C(C)C" , please?
Result :: 7.70

Query :: Recorded pEC50 for "CC(C)C(=O)O[C@]1(CCN(C)CCCc2nc3ccccc3[nH]2)C[C@@H]2CCC[C@H]1c1ccccc12" , please?
Result :: 7.59

Query :: Recorded pEC50 for "CC(C)C(=O)O[C@]1(CCN(C)CCCc2nc3ccccc3[nH]2)C[C@@H](O)c2cc(F)ccc2[C@@H]1C(C)C" , please?
Result :: 6.87

Query :: Recorded pEC50 for "CO[C@H]1C[C@@](CCN(C)CCCc2nc3ccccc3[nH]2)(OC(=O)C(C)C)[C@@H](C(C)C)c2ccc(F)cc21" , please?
Result :: 7.40

###

molecular target: Voltage-dependent L-type calcium channel subunit alpha-1C (Homo sapiens); test: Inhibition of recombinant Cav1.2 channel (unknown origin) expressed in HEK293 cells assessed as effect on calcium flux incubated for 3 mins by FLIPR assay
Sequence (Q13936 whole entry): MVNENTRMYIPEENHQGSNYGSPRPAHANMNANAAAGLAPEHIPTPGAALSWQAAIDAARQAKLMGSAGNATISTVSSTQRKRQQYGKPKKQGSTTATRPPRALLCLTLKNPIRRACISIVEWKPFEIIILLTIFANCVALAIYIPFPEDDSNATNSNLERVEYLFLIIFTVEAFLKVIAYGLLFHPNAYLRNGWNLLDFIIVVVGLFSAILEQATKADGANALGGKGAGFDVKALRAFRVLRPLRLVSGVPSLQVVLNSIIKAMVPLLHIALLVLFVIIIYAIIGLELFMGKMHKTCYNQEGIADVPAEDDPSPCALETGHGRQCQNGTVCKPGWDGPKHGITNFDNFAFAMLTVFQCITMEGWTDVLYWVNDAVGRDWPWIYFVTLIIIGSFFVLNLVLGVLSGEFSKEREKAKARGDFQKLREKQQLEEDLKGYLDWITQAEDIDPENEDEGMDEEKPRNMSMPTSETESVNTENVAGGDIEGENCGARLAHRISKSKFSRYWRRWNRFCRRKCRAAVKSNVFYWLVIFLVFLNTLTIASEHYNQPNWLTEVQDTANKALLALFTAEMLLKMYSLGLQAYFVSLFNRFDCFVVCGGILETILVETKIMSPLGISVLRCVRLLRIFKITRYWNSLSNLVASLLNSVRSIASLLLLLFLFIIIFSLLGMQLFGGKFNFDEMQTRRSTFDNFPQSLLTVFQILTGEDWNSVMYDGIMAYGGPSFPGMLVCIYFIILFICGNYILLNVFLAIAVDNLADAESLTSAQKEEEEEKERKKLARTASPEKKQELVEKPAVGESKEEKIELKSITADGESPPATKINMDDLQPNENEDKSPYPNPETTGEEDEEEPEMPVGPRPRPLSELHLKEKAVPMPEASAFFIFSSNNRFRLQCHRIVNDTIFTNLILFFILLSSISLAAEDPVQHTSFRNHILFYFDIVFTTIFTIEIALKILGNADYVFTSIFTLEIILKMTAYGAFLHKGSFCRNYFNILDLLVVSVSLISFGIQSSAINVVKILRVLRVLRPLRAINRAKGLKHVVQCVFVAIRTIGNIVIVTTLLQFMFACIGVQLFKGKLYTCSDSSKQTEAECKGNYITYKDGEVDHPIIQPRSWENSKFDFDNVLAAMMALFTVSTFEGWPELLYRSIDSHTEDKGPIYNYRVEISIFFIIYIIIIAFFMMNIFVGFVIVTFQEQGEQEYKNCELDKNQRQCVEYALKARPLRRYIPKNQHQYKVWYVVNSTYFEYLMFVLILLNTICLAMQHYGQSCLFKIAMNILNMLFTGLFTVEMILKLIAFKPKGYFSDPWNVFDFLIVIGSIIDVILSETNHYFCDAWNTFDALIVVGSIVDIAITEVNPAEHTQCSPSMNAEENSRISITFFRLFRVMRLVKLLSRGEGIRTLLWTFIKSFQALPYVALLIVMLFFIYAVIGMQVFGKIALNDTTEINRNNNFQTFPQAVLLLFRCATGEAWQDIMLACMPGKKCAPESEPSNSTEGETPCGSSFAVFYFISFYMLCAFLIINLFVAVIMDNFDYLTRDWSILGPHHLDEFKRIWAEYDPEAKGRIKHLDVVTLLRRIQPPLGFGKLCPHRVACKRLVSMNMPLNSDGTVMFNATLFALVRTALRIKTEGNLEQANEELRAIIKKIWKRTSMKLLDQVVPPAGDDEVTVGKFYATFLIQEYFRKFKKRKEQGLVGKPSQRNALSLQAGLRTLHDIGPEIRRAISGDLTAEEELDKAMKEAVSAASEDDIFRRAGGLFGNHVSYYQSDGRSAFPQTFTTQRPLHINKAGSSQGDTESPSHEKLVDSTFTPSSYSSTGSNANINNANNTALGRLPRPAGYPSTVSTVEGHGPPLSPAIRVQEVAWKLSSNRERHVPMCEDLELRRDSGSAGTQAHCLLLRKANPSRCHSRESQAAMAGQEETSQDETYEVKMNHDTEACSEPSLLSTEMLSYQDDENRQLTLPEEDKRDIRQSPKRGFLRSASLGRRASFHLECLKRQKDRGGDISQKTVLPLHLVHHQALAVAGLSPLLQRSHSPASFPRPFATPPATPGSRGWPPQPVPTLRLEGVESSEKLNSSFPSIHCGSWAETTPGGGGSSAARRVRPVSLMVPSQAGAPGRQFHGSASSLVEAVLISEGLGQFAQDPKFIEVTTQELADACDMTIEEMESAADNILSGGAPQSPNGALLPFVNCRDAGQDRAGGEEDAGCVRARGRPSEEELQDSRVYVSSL
In plain terms, low IC50, meaning strictly below 500 nM, gives Satisfied, and everything else gives Not satisfied.

Would you please look over these solved cases?
- MOLECULE: "CC(C)C(=O)O[C@]1(CCN(C)CCCc2nc3ccccc3[nH]2)C[C@@H]2CCC[C@H]1c1ccccc12 (racemic)"
  DISCRETE LABEL: "Satisfied"
- MOLECULE: "CC(C)C(=O)O[C@]1(CCN(C)CCCc2nc3ccccc3[nH]2)CCc2cc(F)ccc2[C@@H]1C(C)C"
  DISCRETE LABEL: "Satisfied"
- MOLECULE: "CO[C@H]1C[C@@](CCN(C)CCCc2nc3ccccc3[nH]2)(OC(=O)C(C)C)[C@@H](C(C)C)c2ccc(F)cc21"
  DISCRETE LABEL: "Satisfied"
- MOLECULE: "CO[C@]1(CCN(C)CCCc2nc3ccccc3[nH]2)C[C@@H]2CC[C@H]1c1ccccc12 (racemic)"
  DISCRETE LABEL: "Not satisfied"

Query :: Field: below-cutoff. Rule: recorded IC50 strictly less than 500 nM. Subject: "CC(C)C(=O)O[C@]1(CCN(C)CCCc2nc3ccccc3[nH]2)C[C@@H]2CC[C@H]1c1ccccc12"
Result :: Not satisfied

Query :: Field: below-cutoff. Rule: recorded IC50 strictly less than 500 nM. Subject: "COCC(=O)O[C@]1(CCN(C)CCCc2nc3ccccc3[nH]2)CC(C)(C)c2cc(F)ccc2[C@@H]1C(C)C"
Result :: Satisfied

Query :: Field: below-cutoff. Rule: recorded IC50 strictly less than 500 nM. Subject: CC(C)C(=O)O[C@]1(CCN(C)CCCc2nc3ccccc3[nH]2)C[C@@H]2CC[C@H]1c1nccnc12 (racemic)
Result :: Not satisfied

Query :: Field: below-cutoff. Rule: recorded IC50 strictly less than 500 nM. Subject: "CC(C)C(=O)O[C@]1(CCN(C)CCCc2nc3ccccc3[nH]2)C[C@H](OCc2ccccc2)c2cc(F)ccc2[C@@H]1C(C)C"
Result :: Satisfied

###

molecular target: Voltage-dependent L-type calcium channel subunit alpha-1C (Homo sapiens); assay: Inhibition of recombinant Cav1.2 channel (unknown origin) expressed in HEK293 cells assessed as effect on calcium flux incubated for 3 mins by FLIPR assay
Listed here: items and their measured IC50.
Report the figure in nM without appending any unit label.

- COMPOUND: "CC(C)C(=O)O[C@@]1(CCN(C)CCCc2nc3ccccc3[nH]2)C[C@H]2CC[C@@H]1c1ccccc12"
  IC50 [nM]: 424
- COMPOUND: "CC(C)C(=O)O[C@]1(CCN(C)CCCc2nc3ccccc3[nH]2)C[C@@H]2CC[C@H]1c1ccccc12 (racemic)"
  IC50 [nM]: 533
- COMPOUND: "CC(C)C(=O)O[C@]1(CCN(C)CCCc2nc3ccccc3[nH]2)C[C@H](O)c2cc(F)ccc2[C@@H]1C(C)C"
  IC50 [nM]: 426

Read the next record carefully.
Query :: Recorded IC50 for "CO[C@@H]1C[C@@](CCN(C)CCCc2nc3ccccc3[nH]2)(OC(=O)C(C)C)[C@@H](C(C)C)c2ccc(F)cc21" , please?
Result :: 588
